# experimental_target: Microphthalmia-associated transcription factor (Homo sapiens, UniProt O75030)
# Sequence (O75030 whole entry): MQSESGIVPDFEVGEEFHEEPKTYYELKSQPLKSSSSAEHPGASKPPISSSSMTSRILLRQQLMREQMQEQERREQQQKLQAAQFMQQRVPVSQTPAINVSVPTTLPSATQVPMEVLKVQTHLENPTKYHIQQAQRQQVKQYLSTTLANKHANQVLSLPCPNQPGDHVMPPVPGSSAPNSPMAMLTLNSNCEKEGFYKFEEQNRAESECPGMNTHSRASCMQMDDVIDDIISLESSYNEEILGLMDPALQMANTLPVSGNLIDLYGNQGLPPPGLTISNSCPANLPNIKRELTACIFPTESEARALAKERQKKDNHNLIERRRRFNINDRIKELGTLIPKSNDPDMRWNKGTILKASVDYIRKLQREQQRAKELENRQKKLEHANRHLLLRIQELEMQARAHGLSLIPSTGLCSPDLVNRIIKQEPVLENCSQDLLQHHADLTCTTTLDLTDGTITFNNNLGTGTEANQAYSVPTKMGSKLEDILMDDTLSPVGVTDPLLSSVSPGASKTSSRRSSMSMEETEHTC
# measurement_description: reducers of TRPM1 reporter luminescence, concentration series – cell-based, SK-MEL-5, cherry-picked, set 3, MITF inhibitor project, dose response (AID 493073);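 further: SK-MEL-5 melanoma cells with luciferase driven by the MITF target TRPM1 promoter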
# Format: functional
Active and inactive are the calls of the source.
result_type: AC50

Ask: Reported AC50, compound `COc1cccc(CNCCc2c[nH]c3ccccc23)c1OCc1ccccc1` : ____
Reply: 14.4 µM (active)

Ask: Reported AC50, compound CS(=O)(=O)c1ccc([S+]([O-])CC(=O)OCc2ccccc2)c([N+](=O)[O-])c1 (stereo not given) : ____
Reply: 5.46 µM (active)

Ask: Reported AC50, compound `NC(=O)C1CCN(C2=C(NS(=O)(=O)c3ccc(Br)cc3)C(=O)c3ccccc3C2=O)CC1` : ____
Reply: 11.9 µM (active)

Ask: Reported AC50, compound `O=C1CN(C(=O)Cn2ncc(Cl)c(Cl)c2=O)c2ccccc2N1` : ____
Reply: 8.67 µM (active)

Ask: Reported AC50, compound `O=C(/C=C/Nc1ccccc1Br)c1ccccn1` : ____
Reply: 0.899 µM (active)

====

For each record, write down the corresponding IC50.
# experimental_target: DNA dC->dU-editing enzyme APOBEC-3G (Homo sapiens);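 further: Dose-response counterscreen measuring inhibition of APOBEC3G DNA deaminase activity, run while confirming APOBEC3A inhibitors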
# Sequence (Q9HC16 whole entry): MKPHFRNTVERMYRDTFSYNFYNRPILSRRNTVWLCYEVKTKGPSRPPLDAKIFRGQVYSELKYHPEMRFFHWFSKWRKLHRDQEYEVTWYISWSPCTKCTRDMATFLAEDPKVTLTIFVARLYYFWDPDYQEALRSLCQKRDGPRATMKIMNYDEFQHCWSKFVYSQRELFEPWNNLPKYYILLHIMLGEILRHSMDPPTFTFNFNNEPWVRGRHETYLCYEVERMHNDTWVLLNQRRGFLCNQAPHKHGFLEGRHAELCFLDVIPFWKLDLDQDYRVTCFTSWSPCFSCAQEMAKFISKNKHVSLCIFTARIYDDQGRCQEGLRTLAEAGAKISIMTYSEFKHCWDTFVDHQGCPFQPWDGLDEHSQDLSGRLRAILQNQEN
# Type: functional
The source made the active and inactive calls.

Ask: Reported IC50, molecule `CN(C)S(=O)(=O)c1ccc(C(=O)NCC[N+]2(C)CCCCCC2)o1` : ____
Reply: 4080 nM (active)

Ask: Reported IC50, molecule `O=C(NCc1ccc2c(c1)OCO2)c1cc(-n2cnnc2)ccc1Cl` : ____
Reply: 2440 nM (active)

Ask: Reported IC50, molecule `C[N+]1(CCCOC(=O)C2(c3ccccc3)CCCC2)CCOCC1` : ____
Reply: 1990 nM (active)

Ask: Reported IC50, molecule `CC1CCN(C(=O)c2ncn(C)c2C(=O)N2CCC(C)CC2)CC1` : ____
Reply: 2830 nM (active)

====

# experimental_target: Luciferin 4-monooxygenase (Photinus pyralis, UniProt P08659)
# Sequence (P08659 whole entry): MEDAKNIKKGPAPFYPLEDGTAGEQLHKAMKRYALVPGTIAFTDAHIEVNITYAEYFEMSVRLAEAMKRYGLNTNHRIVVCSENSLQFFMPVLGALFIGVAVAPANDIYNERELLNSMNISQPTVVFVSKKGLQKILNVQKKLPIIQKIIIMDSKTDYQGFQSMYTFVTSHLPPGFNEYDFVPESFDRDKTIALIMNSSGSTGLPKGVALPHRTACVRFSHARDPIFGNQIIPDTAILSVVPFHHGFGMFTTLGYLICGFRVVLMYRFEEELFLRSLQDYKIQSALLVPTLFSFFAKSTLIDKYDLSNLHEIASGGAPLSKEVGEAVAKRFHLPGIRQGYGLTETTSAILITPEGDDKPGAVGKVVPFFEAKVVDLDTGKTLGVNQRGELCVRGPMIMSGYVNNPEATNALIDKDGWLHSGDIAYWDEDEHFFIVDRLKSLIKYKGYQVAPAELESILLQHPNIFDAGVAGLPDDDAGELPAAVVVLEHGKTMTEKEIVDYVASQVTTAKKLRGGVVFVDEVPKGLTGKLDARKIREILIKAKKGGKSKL
# measurement_description: inhibition of purified Photinus pyralis luciferase – biochemical, luminescence, dose response (AID 1891)
The source made the active and inactive calls.
result_type: EC50

Ask: Give recorded EC50 with Luciferin 4-monooxygenase (Photinus pyralis, UniProt P08659) for the following compound: `O=C1CCC(c2ccc(-n3ccnc3)cc2)=NN1`
Reply: > 112 µM (not active)

Ask: Give recorded EC50 with Luciferin 4-monooxygenase (Photinus pyralis, UniProt P08659) for the following compound: `COc1cc2c(cc1OC)-c1cc(Nc3ccc4c(c3)OCCO4)nc(=O)n1CC2`
Reply: 17.4 µM (active)

Ask: Give recorded EC50 with Luciferin 4-monooxygenase (Photinus pyralis, UniProt P08659) for the following compound: `O=C(CCl)Nc1ccccc1C(=O)Nc1ccc2c(c1)OCO2`
Reply: > 112 µM (not active)

Ask: Give recorded EC50 with Luciferin 4-monooxygenase (Photinus pyralis, UniProt P08659) for the following compound: `Cc1ncoc1C(=O)Nc1ccc2c(c1)OCCO2`
Reply: 34.3 µM (active)

Ask: Give recorded EC50 with Luciferin 4-monooxygenase (Photinus pyralis, UniProt P08659) for the following compound: `O=C(/C=C/Nc1ccccc1Br)c1ccccn1`
Reply: 1.34 µM (active)

Ask: Give recorded EC50 with Luciferin 4-monooxygenase (Photinus pyralis, UniProt P08659) for the following compound: `COC(=O)c1sccc1NC(=O)Nc1cccc(F)c1`
Reply: 0.93 µM (active)

Ask: Give recorded EC50 with Luciferin 4-monooxygenase (Photinus pyralis, UniProt P08659) for the following compound: CCOC(=O)NC1(C(F)(F)F)NC(=O)N(Cc2ccco2)C1=O (configuration not stated)
Reply: > 112 µM (not active)

====

For each record, write down the corresponding EC50.
# measurement_description: Trypanosoma cruzi growth suppression in host cells – NIH3T3 host cells, beta-gal luminescence, confirmation (AID 2044);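 further: intracellular parasites grown in NIH/3T3 mouse fibroblasts as host cells; luminescent beta-galactosidase reporter signal from transgenic T. cruzi replicating inside host cells; inhibitors lower the luminescence signal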
# Assay type: functional, cell-based
The source made the active and inactive calls.

Ask: Reported EC50, compound `Cc1c(C(=O)Nc2cccc(Cl)c2)c2ccccn2c1CCc1ccncc1` : ____
Reply: 1.19 µM (active)

Ask: Reported EC50, compound `O=C(Nc1ccncc1)Nc1cc(Cl)ccc1Cl` : ____
Reply: 0.469 µM (active)

Ask: Reported EC50, compound `CCOC(=O)c1c(NC(=O)c2c(-c3ccccc3)noc2C)sc(C)c1-c1ccccc1` : ____
Reply: 0.805 µM (active)

Ask: Reported EC50, compound O=C(CSc1nc(=O)n2ccccc2n1)N1N=C(c2cccs2)CC1c1ccc(F)cc1 (stereo not given) : ____
Reply: 1.51 µM (active)

Ask: Reported EC50, compound `COc1ccc(CNc2oc(COc3ccc(Cl)cc3)nc2C#N)cc1` : ____
Reply: 1.36 µM (active)

Ask: Reported EC50, compound CC(C)(CO)CNC1CCCN(C2Cc3ccccc3C2)C1 (stereo not given) : ____
Reply: < 0.1 µM (active)

Ask: Reported EC50, compound `COC(=O)c1cc2c(ccn2-c2ccc(F)cc2)n1Cc1ccc(OC(C)=O)cc1` : ____
Reply: 2.84 µM (active)

Ask: Reported EC50, compound `O=C(COc1ccc(/C=N/NC(=O)c2cc3ccccc3o2)cc1Br)Nc1ccccc1` : ____
Reply: 1.97 µM (active)

Ask: Reported EC50, compound CS(=O)(=O)c1ccc([S+]([O-])CC(=O)OCc2ccccc2)c([N+](=O)[O-])c1 (stereo not given) : ____
Reply: 3.05 µM (active)

Ask: Reported EC50, compound `CCn1c(N2CCN(S(=O)(=O)c3ccc(Cl)cc3)CC2)nc2ccccc21` : ____
Reply: 1.55 µM (active)

====

# experimental_target: Caspase-3 (Homo sapiens, UniProt P42574);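 further: Dose-response selectivity test against caspase-3 for candidate inhibitors of sentrin-specific proteases (SENPs)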
# Type: functional
Activity calls are given as the source filed them.
For each record, write down the corresponding IC50.

Ask: Reported IC50, compound `Cn1c(SCc2ccc(C#N)cc2Cl)nc2ccccc21` : ____
Reply: 8.4 µM (active)

Ask: Reported IC50, compound `Cc1ccc(S(=O)(=O)NC(=NNC(=O)c2cccc(Cl)c2)c2ccccc2)cc1` : ____
Reply: 10.3 µM (active)

Ask: Reported IC50, compound `CCOC(=O)CN1C(=O)S/C(=C\c2ccc(-c3cccc(C(=O)O)c3C)o2)C1=O` : ____
Reply: 45.4 µM (active)

Ask: Reported IC50, compound `CCOc1cccc(-c2nc3cc(C)ccc3o2)c1` : ____
Reply: 18.2 µM (active)

====

For each record, write down the corresponding IC50.
# experimental_target: Protein skinhead-1 (Caenorhabditis elegans, UniProt P34707)
# Sequence (P34707 whole entry): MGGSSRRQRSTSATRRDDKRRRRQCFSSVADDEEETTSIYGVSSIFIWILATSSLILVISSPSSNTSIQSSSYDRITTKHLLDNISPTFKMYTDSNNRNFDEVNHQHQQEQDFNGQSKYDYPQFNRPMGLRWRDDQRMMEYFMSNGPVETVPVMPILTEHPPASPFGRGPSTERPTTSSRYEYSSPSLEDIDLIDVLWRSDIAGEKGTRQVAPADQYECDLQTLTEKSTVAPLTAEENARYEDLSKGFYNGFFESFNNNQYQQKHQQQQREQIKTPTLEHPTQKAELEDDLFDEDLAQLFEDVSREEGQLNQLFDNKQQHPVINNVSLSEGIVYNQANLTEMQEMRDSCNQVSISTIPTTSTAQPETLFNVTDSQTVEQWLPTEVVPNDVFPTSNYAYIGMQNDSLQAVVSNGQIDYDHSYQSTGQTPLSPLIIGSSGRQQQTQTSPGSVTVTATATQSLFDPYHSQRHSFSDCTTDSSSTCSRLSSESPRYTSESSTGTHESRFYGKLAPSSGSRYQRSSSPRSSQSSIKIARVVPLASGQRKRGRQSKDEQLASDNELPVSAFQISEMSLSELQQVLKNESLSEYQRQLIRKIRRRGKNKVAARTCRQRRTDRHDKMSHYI
# Format: functional
Activity calls are given as the source filed them.

Ask: Reported IC50, compound `O=C(Nc1cc2nn(-c3ccccc3)nc2cc1Cl)c1ccco1` : ____
Reply: > 100 µM (inactive)

Ask: Reported IC50, compound `C[C@@H]1C=C[C@](Cc2ccccc2)(C(=O)NCC2CC2)N1C(=O)c1ccccc1` : ____
Reply: > 100 µM (inactive)

Ask: Reported IC50, compound `Fc1ccccc1-c1nc(-c2ccncc2)no1` : ____
Reply: 25.1 µM (active)

Ask: Reported IC50, compound `CSc1ccc(NC(=O)NCCCN2CCN(c3ccccc3F)CC2)cc1` : ____
Reply: > 100 µM (inactive)

====

For each record, write down the corresponding EC50.
# measurement_description: fluconazole-exposed Candida albicans growth modulators – fluorescence, retest, confirmation (AID 2467)
# Format: functional, cell-based
Calls of active or inactive are those of the source.

Ask: Reported EC50, molecule `CCCCc1c(O)n(-c2ccccc2OC)c(SCC(=O)Nc2cccc3ccccc23)nc1=O` : ____
Reply: 2.03 µM (active)

Ask: Reported EC50, molecule CC1(O)CC(c2ccc(Cl)cc2)=NN1C(=O)c1ccc([N+](=O)[O-])cc1 (centres undefined) : ____
Reply: 0.404 µM (active)

Ask: Reported EC50, molecule `CCc1ccc(/C=C2/SC(=S)N(CCCC(=O)Nc3ccccc3C(=O)O)C2=O)cc1` : ____
Reply: 4.17 µM (active)

Ask: Reported EC50, molecule `O=C(NCc1ccccc1)c1sc(=S)n2c1[nH]c(=O)c1ccccc12` : ____
Reply: 0.706 µM (active)
